Listing: CC50 at 5 days of selected compounds
- experiment: in vitro
- settings: human

Sample answers from the record:
### Prompt Query: CC50 at 5 days; subject: CNC(=O)[C@@H]1CC(F)(F)CN1CC1=C(C(=O)OC)C(C)(c2ccc(F)cc2)N=C(c2nccs2)N1 (stereo partly shown)
### Response ≥ 100 µM

### Prompt Would you mind doing COC(=O)C1=C(CN2CCOC[C@H]2C(=O)OC)NC(c2nccs2)=NC1(C)c1ccc(F)c(F)c1 (stereo in doubt) as well?
### Response > 100 µM

### Prompt Would you mind doing `COC(=O)C1=C(CN2CC(F)(F)C[C@@]2(C)C(=O)O)NC(c2nccs2)=N[C@]1(C)c1ccc(F)cc1` as well?
### Response ≥ 100 µM

### Prompt Would you mind doing `COC(=O)C1=C(CN2CC(F)(F)C[C@H]2C(=O)O)NC(c2cc(F)cs2)=N[C@@]1(C)c1ccc(F)cc1` as well?
### Response ≥ 100 µM

### Prompt Would you mind doing COC(=O)C1=C(CN2CCOC[C@H]2C(=O)O)NC(c2nccs2)=NC1(C)c1ccc(F)c(F)c1 (stereo partly shown) as well?
### Response > 100 µM

***
### Prompt Query: CC50 at 5 days; subject: `COC(=O)C1=C(CN2CC(F)(F)C[C@H]2C(=O)NS(C)(=O)=O)NC(c2nccs2)=N[C@@]1(C)c1ccc(F)cc1`
### Response 90 µM

### Prompt Would you mind doing COC(=O)C1=C(CN2CCOC[C@@H]2C(=O)O)NC(c2ccc(F)cn2)=NC1(C)c1ccc(F)cc1 (stereo partly shown) as well?
### Response > 100 µM

### Prompt Would you mind doing COC(=O)C1=C(CN2CC(F)(F)C[C@H]2C(=O)OC)NC(c2ccc(F)cn2)=NC1(C)c1ccc(F)cc1 (stereo in doubt) as well?
### Response 90 µM

### Prompt Would you mind doing `COC(=O)C1=C(CN2CC(F)(F)C[C@@]2(C)C(=O)O)NC(c2nccs2)=N[C@@]1(C)c1ccc(F)cc1` as well?
### Response > 100 µM

###

- experiment: in vitro
- settings: human
Listing: CC50 at 5 days of selected molecules

### Prompt Query: CC50 at 5 days; subject: COC(=O)C1=C(CN2CCOC[C@H]2C(=O)O)NC(c2ccc(F)cn2)=NC1(C)c1ccc(F)cc1 (stereo partly shown)
### Response > 100 µM

### Prompt Would you mind doing `COC(=O)C1=C(CN2CC(F)(F)C[C@H]2C(N)=O)NC(c2nccs2)=N[C@@]1(C)c1ccc(F)cc1` as well?
### Response ≥ 100 µM

### Prompt Would you mind doing `COC(=O)C1=C(CN2CC(F)(F)C[C@H]2C(=O)O)NC(c2sccc2F)=N[C@@]1(C)c1ccc(F)cc1` as well?
### Response ≥ 100 µM

Then this molecule:
### Prompt Query: CC50 at 5 days; subject: `COC(=O)C1=C(CN2CC(F)(F)C[C@H]2C(=O)O)NC(c2ccc(F)cn2)=N[C@@]1(C)c1ccc(F)cc1`
### Response 25 µM

###

- experiment: in vitro
- settings: human
observable: CC50 at 5 days

Sample answers from the record:
### Prompt Query: CC50 at 5 days; subject: COC(=O)C1=C(CN2CC(F)(F)C[C@H]2c2nnc(C)o2)NC(c2nccs2)=N[C@@]1(C)c1ccc(F)cc1 [Example 57]
### Response ≥ 100 µM

### Prompt Would you mind doing COC(=O)C1=C(CN2CCOC[C@H]2C(=O)OC)NC(c2nccs2)=NC1(C)c1ccc(F)cc1 (stereo partly shown) [Example 5] as well?
### Response > 100 µM

### Prompt Would you mind doing COC(=O)C1=C(CN2CCOC[C@H]2CO)NC(c2nccs2)=NC1(C)c1ccc(F)cc1 (stereo partly shown) [Example 53] as well?
### Response ≥ 100 µM

### Prompt Would you mind doing COC(=O)C1=C(CN2CC(F)(F)C[C@H]2C(=O)O)NC(c2nccs2)=N[C@@]1(C)c1ccc(F)c(F)c1 [Example 14] as well?
### Response > 100 µM

### Prompt Would you mind doing COC(=O)C1=C(CN2CCC(F)(F)CC2C(=O)O)NC(c2nccs2)=N[C@@]1(C)c1ccc(F)cc1 (stereo partly shown) [Example 26] as well?
### Response ≥ 100 µM

### Prompt Would you mind doing COC(=O)C1=C(CN2C[C@H](F)C[C@H]2C(=O)O)NC(c2nccs2)=N[C@@]1(C)c1ccc(F)cc1 [Example 34] as well?
### Response ≥ 100 µM

Then this compound:
### Prompt Query: CC50 at 5 days; subject: COC(=O)C1=C(CN2CC(F)(F)CC2CCCO)NC(c2nccs2)=N[C@@]1(C)c1ccc(F)cc1 (stereo partly shown) [Example 56]
### Response 90 µM

###

Listing: CC50 at 5 days of selected compounds
- experiment: in vitro
- settings: human

### Prompt Query: CC50 at 5 days; subject: C[C@@]1(c2ccc(F)cc2)N=C(c2nccs2)NC(CN2CC(F)(F)C[C@H]2C(=O)O)=C1C#N [Example 21]
### Response > 100 µM

### Prompt Would you mind doing COC(=O)C1=C(CN2CC(F)(F)C[C@H]2C(=O)N(C)C)NC(c2nccs2)=N[C@@]1(C)c1ccc(F)cc1 [Example 49] as well?
### Response ≥ 100 µM

### Prompt Would you mind doing COC(=O)C1=C(CN2CC(F)(F)C[C@H]2C(=O)O)NC(c2ncc(C)s2)=N[C@@]1(C)c1ccc(F)cc1 [Example 37] as well?
### Response 85 µM

### Prompt Would you mind doing CC1(c2ccc(F)c(F)c2)N=C(c2nccs2)NC(CN2CCOC[C@H]2C(=O)O)=C1C#N (stereo partly shown) [Example 22] as well?
### Response > 100 µM

### Prompt Would you mind doing COC(=O)C1=C(CN2CC(F)(F)C[C@H]2C(=O)O)NC(c2ncc(Cl)s2)=N[C@@]1(C)c1ccc(F)cc1 [Example 33] as well?
### Response 80 µM

***
### Prompt Query: CC50 at 5 days; subject: CCOC(=O)C1=C(CN2CC(F)(F)C[C@H]2C(=O)O)NC(c2nccs2)=N[C@]1(C)c1ccc(F)c(F)c1 [Example 28]
### Response ≥ 100 µM

### Prompt Would you mind doing COC(=O)C1=C(CN2CC(F)(F)C[C@H]2C(=O)OC)NC(c2nccs2)=N[C@@]1(C)c1ccc(F)cc1 [Example 45] as well?
### Response ≥ 100 µM

###

Listing: EC50 of selected molecules
- Test system: HBV DNA
- experiment: Anti-HBV activity in HepDE19 cells (HBV DNA dot-blot)
- Format: cell-based, Hepatitis B virus (HBV)
- settings: Hepatitis B virus, 120 h; HepDE19 cells, five days after compound treatment, concentration that inhibited HBV DNA by 50%; read-out: HepDe19 EC50
A number alone suffices; assume nM.

Sample answers from the record:
### Prompt Query: EC50; subject: COC(=O)C1=C(CN2CC(F)(F)C[C@H]2C(=O)O)NC(c2ccon2)=NC1(C)c1ccc(F)cc1 (stereo partly drawn)
### Response 15000

### Prompt Would you mind doing COC(=O)C1=C(CN2CCOC[C@H]2C(=O)O)NC(c2nccs2)=NC1(C)c1ccc(F)c(F)c1 (stereo partly drawn) as well?
### Response 250

***
### Prompt Query: EC50; subject: `COC(=O)C1=C(CN(CC(=O)O)CC(F)(F)F)NC(c2nccs2)=N[C@@]1(C)c1ccc(F)cc1`
### Response 21500

### Prompt Would you mind doing `COC(=O)C1=C(CN2CC(F)(F)C[C@H]2C(C)(C)O)NC(c2nccs2)=N[C@@]1(C)c1ccc(F)cc1` as well?
### Response 700

### Prompt Would you mind doing `COC(=O)C1=C(CN2CC(F)(F)C[C@H]2C(=O)O)NC(c2ccc(F)cn2)=N[C@@]1(C)c1ccc(F)cc1` as well?
### Response 570

### Prompt Would you mind doing `COC(=O)C1=C(CN2CC(F)(F)C[C@H]2C(=O)O)NC(c2cc(F)cs2)=N[C@@]1(C)c1ccc(F)cc1` as well?
### Response 131

###

Listing: CC50 at 5 days of selected molecules
- experiment: in vitro
- settings: human

Sample answers from the record:
### Prompt Query: CC50 at 5 days; subject: CCOC(=O)C1=C(CN2CCOC[C@H]2C(=O)O)NC(c2nccs2)=NC1(C)c1ccc(F)c(F)c1 (stereo partly shown)
### Response ≥ 100 µM

### Prompt Would you mind doing COC(=O)C1=C(CN2CC(F)(F)CCC2C(=O)O)NC(c2nccs2)=N[C@@]1(C)c1ccc(F)cc1 (stereo partly shown) as well?
### Response ≥ 100 µM

### Prompt Would you mind doing `COC(=O)C1=C(CN(CC(=O)O)CC(F)(F)F)NC(c2nccs2)=N[C@@]1(C)c1ccc(F)cc1` as well?
### Response ≥ 100 µM

### Prompt Would you mind doing `COC(=O)C1=C(CN2CC(F)(F)C[C@H]2C(=O)Nc2nccs2)NC(c2nccs2)=N[C@@]1(C)c1ccc(F)cc1` as well?
### Response 4.07 µM

### Prompt Would you mind doing `COC(=O)C1=C(CN2CCOC[C@H]2C(=O)O)NC(c2nccn2C)=N[C@@]1(C)c1ccc(F)cc1` as well?
### Response ≥ 100 µM

### Prompt Would you mind doing `COC(=O)C1=C(CN2CC(F)(F)C[C@H]2C(=O)O)NC(c2sccc2F)=N[C@]1(C)c1ccc(F)cc1` as well?
### Response ≥ 100 µM

### Prompt Would you mind doing `COC(=O)C1=C(CN2CC(F)(F)C[C@H]2C(=O)O)NC(c2nc(C)cs2)=N[C@]1(C)c1ccc(F)cc1` as well?
### Response ≥ 100 µM

### Prompt Would you mind doing `COC(=O)C1=C(CN2C[C@@H](F)C[C@H]2C(=O)O)NC(c2nccs2)=N[C@@]1(C)c1ccc(F)cc1` as well?
### Response ≥ 100 µM

***
### Prompt Query: CC50 at 5 days; subject: `COC(=O)C1=C(CN2CC(F)(F)C[C@H]2C(=O)O)NC(c2nc(C)cs2)=N[C@@]1(C)c1ccc(F)cc1`
### Response 75 µM

### Prompt Would you mind doing COC(=O)C1=C(CN2CC(F)(F)C[C@H]2C(=O)O)NC(c2ccon2)=NC1(C)c1ccc(F)cc1 (stereo partly shown) as well?
### Response ≥ 100 µM

### Prompt Would you mind doing `COC(=O)C1=C(CN2CC(F)(F)C[C@H]2c2nc(C)no2)NC(c2nccs2)=N[C@@]1(C)c1ccc(F)cc1` as well?
### Response 65.3 µM

### Prompt Would you mind doing `COC(=O)C1=C(CN2CC(F)(F)C[C@H]2C(C)(C)O)NC(c2nccs2)=N[C@@]1(C)c1ccc(F)cc1` as well?
### Response 50.4 µM

### Prompt Would you mind doing `CCOC(=O)C1=C(CN2CC(F)(F)C[C@H]2C(=O)O)NC(c2nccs2)=N[C@@]1(C)c1ccc(F)c(F)c1` as well?
### Response ≥ 100 µM

### Prompt Would you mind doing COC(=O)C1=C(CN2CC(F)(F)CC2C(N)=O)NC(c2nccs2)=N[C@@]1(C)c1ccc(F)cc1 (stereo partly shown) as well?
### Response ≥ 100 µM

### Prompt Would you mind doing COC(=O)C1=C(COC(C)(C)C(=O)OC)NC(c2nccs2)=NC1(C)c1ccc(F)cc1 (stereo not shown) as well?
### Response > 100 µM
